As shown below, each of these compounds has a reported growth inhibition value.
- EXPERIMENT DESCRIPTION: NCI Yeast Anticancer Drug Screen. Data for the mlh1 rad18 strain (AID 175)
- CONDITION PARAMETERS: S. cerevisiae mlh1 rad18 strain growth inhibition; at 50.0 µM; stronger effect = higher value
This is part of a sample that, as a whole, favours compounds with a hit. Of some 79,000 tested, about 15% had one in any assay.
ENDPOINT LABEL: growth inhibition (%)

[[record]]
compound = "COc1cccc(C2c3cc4c(cc3OC(N3CCCC3)C2c2ccccc2)OCO4)c1O (configuration not stated)"
endpoint_label = "growth inhibition"
reported_result = 32.2

[[record]]
compound = "O=C(Cc1ccccc1)NC(C(=O)c1ccccc1)c1ccccc1 (configuration not stated)"
endpoint_label = "growth inhibition"
reported_result = 73.7

[[record]]
compound = "Cc1cc[n+](C2CCC3(C)C(=CCC4C3CCC3(C)C(C(C)CCCC(C)C)CCC43)C2)cc1 (configuration not stated)"
endpoint_label = "growth inhibition"
reported_result = 97.7

[[record]]
compound = "O=C(CCCCCCCCCCc1ccccc1)c1c(O)cccc1O"
endpoint_label = "growth inhibition"
reported_result = 79.3

[[record]]
compound = "CN(C)N=Nc1ccc(-c2ccccc2)cc1"
endpoint_label = "growth inhibition"
reported_result = 84.5

[[record]]
compound = "COc1ccc(Cc2c3ccccc3cc[n+]2C)cc1Oc1ccc(Cc2c3ccccc3cc[n+]2C)cc1"
endpoint_label = "growth inhibition"
reported_result = 85.9

[[record]]
compound = "OC(CCN1CCCCC1)(Cc1ccccc1)c1cccc(Cl)c1 (configuration not stated)"
endpoint_label = "growth inhibition"
reported_result = 60.3

[[record]]
compound = "CCc1ccccc1NC(=O)C(=O)CC(=O)c1ccc(Cl)s1"
endpoint_label = "growth inhibition"
reported_result = -0.1

[[record]]
compound = "c1ccc2c(B(c3cccc4ccccc34)c3cccc4ccccc34)cccc2c1"
endpoint_label = "growth inhibition"
reported_result = 97.4

[[record]]
compound = "CCCCCNc1ccc2c(cc1=O)C(NC(C)=O)CCc1cc(OC)c(OC)c(OC)c1-2 (configuration not stated)"
endpoint_label = "growth inhibition"
reported_result = 24.9

[[record]]
compound = "Cc1ccccc1SCc1nc2ccccc2c(C)[n+]1[O-]"
endpoint_label = "growth inhibition"
reported_result = 59.9

[[record]]
compound = "C=C1CC2(CCCC3(CC(=C)C(=O)O3)C2(C)C)OC1=O (configuration not stated)"
endpoint_label = "growth inhibition"
reported_result = 66.6

[[record]]
compound = "COC(=O)c1cccc2c3ccccc3c3ccccc3c12"
endpoint_label = "growth inhibition"
reported_result = 99.2

[[record]]
compound = "CCNC(=O)COc1ccc(Cl)cc1Cl"
endpoint_label = "growth inhibition"
reported_result = -27.4

[[record]]
compound = "OC1(c2ccccc2)CCC2CCCCC2C1 (configuration not stated)"
endpoint_label = "growth inhibition"
reported_result = 81.2

[[record]]
compound = "Oc1cccc2cc(Br)cnc12"
endpoint_label = "growth inhibition"
reported_result = 74.7

[[record]]
compound = "CCC(=O)Oc1c(Br)c(Br)c(Br)c(Br)c1Br"
endpoint_label = "growth inhibition"
reported_result = 19.5

[[record]]
compound = "COc1cc(C(c2cc3c(cc2OC(C)=O)OCO3)C(C(C)=O)C(C)=O)cc(OC)c1OC(C)=O (configuration not stated)"
endpoint_label = "growth inhibition"
reported_result = -4.2

[[record]]
compound = "CCOc1c(N=Nc2ccccc2Cl)c(C)nn1C(=S)S"
endpoint_label = "growth inhibition"
reported_result = 96

[[record]]
compound = "CCCCCOC(=O)CSC#N"
endpoint_label = "growth inhibition"
reported_result = 98.8

[[record]]
compound = "CCCCC#CC(=O)OCCCCC"
endpoint_label = "growth inhibition"
reported_result = -16.4

[[record]]
compound = "COc1ccc(C(c2ccc(OC)c(OC)c2)C(Cl)(Cl)Cl)cc1OC"
endpoint_label = "growth inhibition"
reported_result = 92.4

[[record]]
compound = "Cc1cc(N2C(=O)CCSC2=S)c([N+](=O)[O-])cc1C"
endpoint_label = "growth inhibition"
reported_result = 99.4

[[record]]
compound = "CC1=CC(=O)CC(c2ccccc2)C1 (configuration not stated)"
endpoint_label = "growth inhibition"
reported_result = 98.3

[[record]]
compound = "CCCC/C=C1/CCC(CN(C)C)C1=O (configuration not stated)"
endpoint_label = "growth inhibition"
reported_result = 54.2

[[record]]
compound = "CC(O)C(O)C(O)C(O)C(O)C(=O)O (configuration not stated)"
endpoint_label = "growth inhibition"
reported_result = -10.9

[[record]]
compound = "COc1ccc(/C(C#N)=C/c2ccncc2)cc1"
endpoint_label = "growth inhibition"
reported_result = 51.3

[[record]]
compound = "CC(=O)C1CCC2C3CC(F)C4(O)CC(O)CCC4(C)C3CCC12C (configuration not stated)"
endpoint_label = "growth inhibition"
reported_result = 32.4

[[record]]
compound = "CCCCCCCCCCNCCSSCCNC(C)=O"
endpoint_label = "growth inhibition"
reported_result = 99.3

[[record]]
compound = "N#CC(Cl)CS(=O)(=O)c1ccccc1 (configuration not stated)"
endpoint_label = "growth inhibition"
reported_result = 99.5

[[record]]
compound = "COC1=CC(=O)c2ncc(Cl)cc2C1=O"
endpoint_label = "growth inhibition"
reported_result = 98.3

[[record]]
compound = "Cc1cc(O)cc(C)c1[N+](=O)[O-]"
endpoint_label = "growth inhibition"
reported_result = 63.5

[[record]]
compound = "CCCCCN(CCCCC)CC(C)(C)C(O)c1ccc(OC)c2ccccc12 (configuration not stated)"
endpoint_label = "growth inhibition"
reported_result = 77.3

[[record]]
compound = "Nc1ccc(O)c(=O)cc1"
endpoint_label = "growth inhibition"
reported_result = 59.9

[[record]]
compound = "CCC(N)(CO)CO"
endpoint_label = "growth inhibition"
reported_result = -30.2

[[record]]
compound = "O=[N+]([O-])c1ccccc1N=Nc1c(O)[nH]c2cccc(C(F)(F)F)c12"
endpoint_label = "growth inhibition"
reported_result = 95.1

[[record]]
compound = "O=C1SC(c2ccccc2)=S=C1c1ccccc1"
endpoint_label = "growth inhibition"
reported_result = -25.4

[[record]]
compound = "O=C(Nc1c(Cl)cccc1Cl)OCc1ccc2c(c1)OCO2"
endpoint_label = "growth inhibition"
reported_result = 35.9

[[record]]
compound = "FC(F)(F)c1ccc(-c2ccc(OCCN3CCCC3)cc2)cc1"
endpoint_label = "growth inhibition"
reported_result = 99.3

[[record]]
compound = "CCOC(=O)CCC(=O)Oc1ccc2c(c1OC(=O)CCC(=O)OCC)C(=O)c1ccccc1C2=O"
endpoint_label = "growth inhibition"
reported_result = 95

[[record]]
compound = "O=[N+]([O-])c1ccc(NNS(=O)(=O)c2ccccc2)c([N+](=O)[O-])c1"
endpoint_label = "growth inhibition"
reported_result = 13.8

[[record]]
compound = "C/C(CCC(=O)O)=N/Nc1ccc(C(=O)O)cc1"
endpoint_label = "growth inhibition"
reported_result = 23.7

